Molecular target: Aminopeptidase N (Plasmodium falciparum FcB1/Columbia, UniProt O96935)
Sequence (O96935 whole entry): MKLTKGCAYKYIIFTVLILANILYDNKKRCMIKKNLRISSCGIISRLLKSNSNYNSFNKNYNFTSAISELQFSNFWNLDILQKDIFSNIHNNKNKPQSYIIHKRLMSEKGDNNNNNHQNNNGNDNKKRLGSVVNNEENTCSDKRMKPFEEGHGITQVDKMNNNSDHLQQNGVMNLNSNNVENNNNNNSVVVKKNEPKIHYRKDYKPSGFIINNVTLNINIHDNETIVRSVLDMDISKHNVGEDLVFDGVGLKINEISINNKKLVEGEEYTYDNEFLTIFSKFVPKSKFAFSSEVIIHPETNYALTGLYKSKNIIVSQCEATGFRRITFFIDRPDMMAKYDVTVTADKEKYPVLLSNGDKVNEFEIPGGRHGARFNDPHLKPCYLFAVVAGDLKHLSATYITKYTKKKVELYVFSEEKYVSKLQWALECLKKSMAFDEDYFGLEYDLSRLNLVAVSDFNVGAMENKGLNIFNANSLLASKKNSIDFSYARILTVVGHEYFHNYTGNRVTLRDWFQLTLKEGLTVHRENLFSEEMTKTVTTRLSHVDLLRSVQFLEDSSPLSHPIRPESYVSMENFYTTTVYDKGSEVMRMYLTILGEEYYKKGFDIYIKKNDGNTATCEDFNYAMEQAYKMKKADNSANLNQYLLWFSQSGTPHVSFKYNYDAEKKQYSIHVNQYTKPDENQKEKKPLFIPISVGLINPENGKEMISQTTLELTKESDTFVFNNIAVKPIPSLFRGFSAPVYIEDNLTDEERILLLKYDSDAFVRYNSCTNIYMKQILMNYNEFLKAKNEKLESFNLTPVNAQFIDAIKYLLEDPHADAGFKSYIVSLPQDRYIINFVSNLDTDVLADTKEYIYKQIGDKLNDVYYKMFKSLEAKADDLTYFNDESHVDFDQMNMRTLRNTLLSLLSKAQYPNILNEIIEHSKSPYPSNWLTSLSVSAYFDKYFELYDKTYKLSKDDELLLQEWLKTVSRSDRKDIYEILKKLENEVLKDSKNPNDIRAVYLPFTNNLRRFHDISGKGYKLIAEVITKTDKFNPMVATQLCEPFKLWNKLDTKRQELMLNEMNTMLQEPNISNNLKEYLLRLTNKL
Provide the reported Ki of each item.
Quick reminder: number only, in µM, skip the unit.

The reported Ki of the compound CC(C)(C)OC(=O)NC(C(=O)NO)c1ccc(-n2cccn2)cc1 (stereo not drawn) was 0.8

Form: compound = Nc1cccc(C(=O)NC(C(=O)NO)c2ccc(-n3cccn3)cc2)c1 (stereo not drawn) ; Ki = 5.5

The compound listed as O=C(NC(C(=O)NO)c1ccc(-n2cccn2)cc1)c1ccccc1F (stereo not drawn) has a reported Ki of 1.9

# Ki of Cl.NC(C(=O)NO)c1ccc(-n2cccn2)cc1 (stereo not drawn) = 74.5

Per the record, O=C(NC(C(=O)NO)c1ccc(-n2cccn2)cc1)c1ccc(F)cc1 (stereo not drawn) has Ki of 11.2

Entry CC(C)C(=O)NC(C(=O)NO)c1ccc(-n2cccn2)cc1 (stereo not drawn) — recorded Ki = 12.3

What the record says about CC(=O)NC(C(=O)NO)c1ccc(-n2cccn2)cc1 (stereo not drawn) : Ki is 113
